measured.target: Ybr033w (UniProt P38073)
Sequence: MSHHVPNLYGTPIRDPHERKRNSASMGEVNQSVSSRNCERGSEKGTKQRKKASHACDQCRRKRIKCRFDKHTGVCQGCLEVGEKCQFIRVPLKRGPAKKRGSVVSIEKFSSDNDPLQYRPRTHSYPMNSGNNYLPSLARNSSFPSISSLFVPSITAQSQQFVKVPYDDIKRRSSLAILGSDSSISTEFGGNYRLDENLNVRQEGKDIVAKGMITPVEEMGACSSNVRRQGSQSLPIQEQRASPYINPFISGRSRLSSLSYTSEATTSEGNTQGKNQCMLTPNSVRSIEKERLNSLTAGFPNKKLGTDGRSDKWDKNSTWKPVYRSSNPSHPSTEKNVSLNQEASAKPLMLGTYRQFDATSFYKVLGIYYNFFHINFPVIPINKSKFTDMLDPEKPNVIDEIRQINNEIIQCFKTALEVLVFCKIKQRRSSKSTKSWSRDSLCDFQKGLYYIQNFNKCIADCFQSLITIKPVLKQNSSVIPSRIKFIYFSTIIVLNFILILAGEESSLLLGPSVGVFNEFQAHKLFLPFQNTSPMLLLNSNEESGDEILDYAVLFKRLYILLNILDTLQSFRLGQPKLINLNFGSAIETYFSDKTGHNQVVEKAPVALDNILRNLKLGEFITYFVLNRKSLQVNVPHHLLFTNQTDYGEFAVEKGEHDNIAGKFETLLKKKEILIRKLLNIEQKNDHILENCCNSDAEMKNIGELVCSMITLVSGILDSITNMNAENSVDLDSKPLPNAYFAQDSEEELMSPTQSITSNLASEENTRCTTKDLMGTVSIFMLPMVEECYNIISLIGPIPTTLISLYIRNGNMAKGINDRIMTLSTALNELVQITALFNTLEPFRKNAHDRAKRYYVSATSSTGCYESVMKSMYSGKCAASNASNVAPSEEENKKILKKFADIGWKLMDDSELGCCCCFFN
test.name: PBM E-score (8-mer binding enrichment) (E-score (-0.5 to 0.5)); higher = stronger / more preferred TF binding
condition: protein concentration: 200 nM; construct: GST-full length
Whole data set: some 33,000 sequences, median “E-score (-0.5 to 0.5)” near -0.012, cut for the highest 2% near 0.29. Only a selection was taken, and the highest values are over-represented in it overall.
Rule: PBM E-score of 0.1 or more gives label 1; anything lower gives label 0.

{"item.sequence": "ACGATTAA", "discrete.label": "label 1"}
{"item.sequence": "CGCTACTA", "discrete.label": "label 1"}
{"item.sequence": "CGGCCATA", "discrete.label": "label 0"}
{"item.sequence": "CATGGAAG", "discrete.label": "label 1"}
{"item.sequence": "TAATAGAA", "discrete.label": "label 1"}
{"item.sequence": "GCGATTAA", "discrete.label": "label 1"}
{"item.sequence": "CATTCTAA", "discrete.label": "label 1"}
{"item.sequence": "AAATATCC", "discrete.label": "label 1"}
{"item.sequence": "CAGTTATC", "discrete.label": "label 0"}
{"item.sequence": "ATTACTTA", "discrete.label": "label 1"}
{"item.sequence": "ATTATTAA", "discrete.label": "label 1"}
{"item.sequence": "TCTCGACA", "discrete.label": "label 0"}
{"item.sequence": "TCCAACGA", "discrete.label": "label 0"}
{"item.sequence": "CACTGGGA", "discrete.label": "label 0"}
{"item.sequence": "CTGCTAAG", "discrete.label": "label 0"}
{"item.sequence": "GTGGCTGA", "discrete.label": "label 0"}
{"item.sequence": "CTTACTTA", "discrete.label": "label 0"}
{"item.sequence": "ACTTTTAC", "discrete.label": "label 1"}
{"item.sequence": "AGCGCATC", "discrete.label": "label 0"}
{"item.sequence": "ATACCTAA", "discrete.label": "label 1"}
{"item.sequence": "AGTTACCG", "discrete.label": "label 0"}
{"item.sequence": "AGATGCAG", "discrete.label": "label 0"}
{"item.sequence": "CAGGGTAC", "discrete.label": "label 0"}
{"item.sequence": "TCCCCTCA", "discrete.label": "label 0"}
{"item.sequence": "GTGGAAGA", "discrete.label": "label 1"}
{"item.sequence": "CCTACCAC", "discrete.label": "label 0"}
{"item.sequence": "AACAAATT", "discrete.label": "label 1"}
{"item.sequence": "TTGAAAAA", "discrete.label": "label 1"}
{"item.sequence": "GAGCTGCA", "discrete.label": "label 0"}
{"item.sequence": "ATTCTCCA", "discrete.label": "label 1"}
{"item.sequence": "CATTTTAA", "discrete.label": "label 1"}
{"item.sequence": "TAAACTGA", "discrete.label": "label 1"}
{"item.sequence": "ATTACTCA", "discrete.label": "label 1"}
{"item.sequence": "AACAAATC", "discrete.label": "label 1"}
{"item.sequence": "ACTTTTAA", "discrete.label": "label 1"}
{"item.sequence": "ATAGTTCC", "discrete.label": "label 1"}
{"item.sequence": "ACGATTTA", "discrete.label": "label 1"}
{"item.sequence": "AAGTATAT", "discrete.label": "label 1"}
{"item.sequence": "CTTGTGCC", "discrete.label": "label 0"}
{"item.sequence": "TGAAGGAA", "discrete.label": "label 1"}
{"item.sequence": "ATTCTCCC", "discrete.label": "label 1"}
{"item.sequence": "CAGGGTGG", "discrete.label": "label 0"}
{"item.sequence": "CGTTATTC", "discrete.label": "label 1"}
{"item.sequence": "AACAAGTC", "discrete.label": "label 0"}
{"item.sequence": "AGCTCTGC", "discrete.label": "label 0"}
{"item.sequence": "CACCTCAC", "discrete.label": "label 0"}
{"item.sequence": "GCGATACA", "discrete.label": "label 0"}
{"item.sequence": "ATACAAGC", "discrete.label": "label 1"}
{"item.sequence": "AACAAGAT", "discrete.label": "label 1"}
{"item.sequence": "AACAAATA", "discrete.label": "label 1"}
{"item.sequence": "AGTTATGA", "discrete.label": "label 0"}
{"item.sequence": "GTCCAGAC", "discrete.label": "label 0"}
{"item.sequence": "GTTATTAA", "discrete.label": "label 1"}
{"item.sequence": "TAGGAAAA", "discrete.label": "label 1"}
{"item.sequence": "CTTCCATC", "discrete.label": "label 0"}
{"item.sequence": "CATTTTAC", "discrete.label": "label 1"}
